Each entry below carries its measured pIC50, system: Proto-oncogene tyrosine-protein kinase Src (Homo sapiens, UniProt P12931).
Sequence (P12931 2-536 limits assumed): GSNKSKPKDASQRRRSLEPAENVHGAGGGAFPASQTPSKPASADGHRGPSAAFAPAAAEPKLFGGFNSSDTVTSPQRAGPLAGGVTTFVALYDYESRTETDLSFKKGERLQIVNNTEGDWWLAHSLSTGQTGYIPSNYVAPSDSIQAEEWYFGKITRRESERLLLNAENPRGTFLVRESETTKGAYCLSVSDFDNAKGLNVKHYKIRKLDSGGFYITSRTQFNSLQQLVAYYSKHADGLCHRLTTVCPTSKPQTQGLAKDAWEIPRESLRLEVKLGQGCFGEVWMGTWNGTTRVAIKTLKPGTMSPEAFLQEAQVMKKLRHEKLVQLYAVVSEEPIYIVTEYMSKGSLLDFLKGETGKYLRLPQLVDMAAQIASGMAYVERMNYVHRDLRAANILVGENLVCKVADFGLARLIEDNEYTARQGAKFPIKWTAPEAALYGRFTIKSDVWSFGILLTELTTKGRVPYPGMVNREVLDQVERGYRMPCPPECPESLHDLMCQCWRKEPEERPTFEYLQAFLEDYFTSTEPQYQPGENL
Hey, just a heads up that pIC50 is the negative log base 10 of the concentration in molar.

Look up and state reported pIC50 for `CC[C@H](C)[C@H](NC(=O)[C@H](CCC(=O)O)NC(=O)[C@@H]1CCC(=O)N[C@@H](Cc2ccc(OP(=O)(O)O)cc2)C(=O)N1)C(=O)O`
5.48

Look up and state reported pIC50 for `CC[C@@H](C)[C@H](NC(=O)[C@H](CCC(=O)O)NC(=O)CC[C@H](NC(=O)[C@H](Cc1ccc(OP(=O)(O)O)cc1)NC(C)=O)C(=O)O)C(=O)O`
4.16

Look up and state reported pIC50 for `CC[C@H](C)[C@H](NC(=O)[C@@H]1CCC(=O)N[C@@H](Cc2ccc(OP(=O)(O)O)cc2)C(=O)N[C@@H](CCC(=O)O)C(=O)N1)C(=O)O`
5.23

====

measured on: Proto-oncogene tyrosine-protein kinase Src (Homo sapiens, UniProt P12931)
Record form. Attribute: IC50. Fill in for each entry.
// note: answer is a bare numeric in µM

System Proto-oncogene tyrosine-protein kinase Src (Homo sapiens, UniProt P12931). Read-out IC50. Item `CC[C@H](C)[C@H](NC(=O)CC[C@@H]1NC(=O)[C@H](CCC(=O)O)NC(=O)[C@H](Cc2ccc(OP(=O)(O)O)cc2)NC1=O)C(=O)O` . Report value.
1.1

System Proto-oncogene tyrosine-protein kinase Src (Homo sapiens, UniProt P12931). Read-out IC50. Item CC(C)[C@H](NC(=O)C[C@@H](CCC(=O)O)NC(=O)C(NC(=O)[C@@H](N)Cc1ccc(OP(=O)(O)O)cc1)C(=O)O)C(=O)O (single isomer, unassigned) . Report value.
83.2

====

Each entry below carries its measured IC50, system: Proto-oncogene tyrosine-protein kinase Src (Homo sapiens, UniProt P12931).

Look up and state reported IC50 for `CC[C@H](C)[C@H](NC(=O)CC[C@H](NC(=O)[C@H](CCC(=O)O)NC(=O)[C@@H](N)Cc1ccc(OP(=O)(O)O)cc1)C(=O)O)C(=O)O`
> 100 µM

Look up and state reported IC50 for `CC[C@H](C)[C@H](NC(=O)C[C@H](NC(=O)[C@H](CCC(=O)O)NC(=O)[C@@H](N)Cc1ccc(OP(=O)(O)O)cc1)C(=O)O)C(=O)O`
> 100 µM

Look up and state reported IC50 for `CC[C@@H](C)[C@H](NC(=O)[C@H](CCC(=O)O)NC(=O)C[C@H](NC(=O)[C@@H](N)Cc1ccc(OP(=O)(O)O)cc1)C(=O)O)C(=O)O`
> 100 µM
